Hey, just so you know, these numbers are from PubChem BioAssay (Tox21).

Assay: qHTS assay to identify small molecule agonists of the constitutive androstane receptor (CAR) signaling pathway - cell viability counter screen (AID 1224836); further: on the % scale 0 is the no-effect control and ±100 the full control effect; nearly all actives have a fitted effect of over 45% in size
Settings: HepG2-CYP2B6-hCAR viability, CellTiter-Fluor, 23 h, PK11195 added to every well; series mostly up to 92.4 µM
Records with an inconclusive call do not appear. The source made the active and inactive calls. The call rests on the fitted dose curve; in most records, active means well fitted cell-killing curve with a large enough effect in the repeat runs; inconclusive means weak or mixed curves, or effect the other way; inactive means flat fitted curve, though single readings scatter.
QUANTITY_NAME: viability change, negative = cytotoxic

{"COMPOUND": "O=C(O)CN(CCCN(CC(=O)O)CC(=O)O)CC(=O)O", "OBSERVED_RESULT": "-21.6% [at 19 µM] (inactive)"}
{"COMPOUND": "C=CC(=O)OCCOC1C2CCC1C1CC=CC12 (stereo not given)", "OBSERVED_RESULT": "-2.57% [at 19 µM] (inactive)"}
{"COMPOUND": "CCCCNc1ccc(NCCCC)c2c1C(=O)c1ccccc1C2=O", "OBSERVED_RESULT": "-17.5% [at 19 µM] (inactive)"}
{"COMPOUND": "COc1cc(C(C)C)ccc1C", "OBSERVED_RESULT": "2.67% [at 19 µM] (inactive)"}
{"COMPOUND": "O=C(O)C[C@H](O)C[C@H](O)/C=C/c1c(C2CC2)nc2ccccc2c1-c1ccc(F)cc1", "OBSERVED_RESULT": "-13.2% [at 19 µM] (inactive)"}

----------
Molecular target: Progesterone receptor (Homo sapiens) (UniProt P06401)
Sequence (P06401 whole entry, looked up): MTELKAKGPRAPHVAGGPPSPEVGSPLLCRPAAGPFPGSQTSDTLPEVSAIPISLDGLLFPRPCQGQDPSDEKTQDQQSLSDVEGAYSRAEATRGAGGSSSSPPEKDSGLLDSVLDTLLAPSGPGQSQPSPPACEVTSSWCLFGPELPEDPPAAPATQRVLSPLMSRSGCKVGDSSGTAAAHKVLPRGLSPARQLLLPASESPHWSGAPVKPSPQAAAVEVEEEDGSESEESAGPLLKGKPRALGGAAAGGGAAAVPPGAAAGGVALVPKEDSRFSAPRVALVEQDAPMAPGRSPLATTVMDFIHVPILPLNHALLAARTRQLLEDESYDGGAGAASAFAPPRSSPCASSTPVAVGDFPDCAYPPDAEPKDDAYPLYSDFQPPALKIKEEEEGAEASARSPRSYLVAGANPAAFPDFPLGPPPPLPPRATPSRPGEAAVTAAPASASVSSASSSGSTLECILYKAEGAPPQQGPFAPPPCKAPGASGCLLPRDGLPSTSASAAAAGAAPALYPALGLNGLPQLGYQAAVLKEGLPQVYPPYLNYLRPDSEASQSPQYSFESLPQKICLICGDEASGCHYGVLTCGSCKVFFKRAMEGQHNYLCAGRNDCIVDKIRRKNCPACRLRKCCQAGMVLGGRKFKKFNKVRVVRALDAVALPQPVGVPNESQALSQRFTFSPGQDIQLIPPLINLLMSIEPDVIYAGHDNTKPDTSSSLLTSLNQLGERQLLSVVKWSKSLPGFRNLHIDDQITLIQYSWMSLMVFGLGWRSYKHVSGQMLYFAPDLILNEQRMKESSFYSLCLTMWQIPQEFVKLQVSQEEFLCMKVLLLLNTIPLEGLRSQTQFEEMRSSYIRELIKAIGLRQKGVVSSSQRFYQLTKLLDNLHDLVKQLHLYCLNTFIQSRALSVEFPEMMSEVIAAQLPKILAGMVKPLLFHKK
Assay: qHTS assay to identify small molecule antagonists of the progesterone receptor (PR) signaling pathway (AID 1346795)
Conditions: PR-UAS-bla HEK293T, beta-lactamase FRET ratio, 16 h; series mostly up to 92.4 µM
Results filed as inconclusive are left out. Active and inactive are the calls of the source. Calls come from the whole dose curve; as a rule, active = well fitted inhibition curve with a large enough effect in the signal ratio in the repeat runs (not every such curve was filed as active); inconclusive = weak or mixed curves; inactive = flat fitted curve, though single readings scatter; the % refers to the signal ratio.
Outcome codes: active, inactive

{"MOLECULE": "O=S(=O)(c1ccc(OCc2ccccc2)cc1)c1ccccc1O", "CATEGORY": "active"}
{"MOLECULE": "C1CCSC1", "CATEGORY": "inactive"}
{"MOLECULE": "CCOC(=O)[C@H](C)O", "CATEGORY": "inactive"}
{"MOLECULE": "Cc1ccc(C=O)cc1", "CATEGORY": "inactive"}
{"MOLECULE": "CC/C=C\\C/C=C\\C/C=C\\CCCCCCCC(=O)OC", "CATEGORY": "inactive"}
{"MOLECULE": "C=Cc1ccncc1", "CATEGORY": "inactive"}
{"MOLECULE": "C/C(=N\\[Si](C)(C)C)O[Si](C)(C)C", "CATEGORY": "inactive"}
{"MOLECULE": "O=C(NCc1ncc(C(F)(F)F)cc1Cl)c1c(Cl)cccc1Cl", "CATEGORY": "active"}
{"MOLECULE": "CCCCCCCCc1ccc(Nc2ccc(CCCCCCCC)cc2)cc1", "CATEGORY": "inactive"}
{"MOLECULE": "CCNc1nc(NC(C)(C)C)nc(OC)n1", "CATEGORY": "inactive"}
{"MOLECULE": "CC(=O)Nc1ccc(N=Nc2cc(C)ccc2O)cc1", "CATEGORY": "active"}
{"MOLECULE": "O=C1CCCCCCCCCCCCCC1", "CATEGORY": "inactive"}
{"MOLECULE": "CC(C)(c1ccc(Oc2ccc(N)cc2)cc1)c1ccc(Oc2ccc(N)cc2)cc1", "CATEGORY": "active"}
{"MOLECULE": "C=C(C)CCO", "CATEGORY": "inactive"}
{"MOLECULE": "CCCCCCCCCCCC(=O)Cl", "CATEGORY": "inactive"}

----------
Experiment: qHTS assay to identify small molecule antagonists of the estrogen related receptor (ERR) signaling pathway (AID 1224819;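 further: luminescence from an ERR-driven luciferase reporter measured with One-Glo reagent; on the % scale 0 is the no-effect control and ±100 the full control effect; nearly all actives have a fitted effect of over 50% in size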)
Conditions: ERR reporter cell line, luciferase inhibition; series mostly up to 46.1 µM
Inconclusive results are not listed. The source made the active and inactive calls. Calls come from the whole dose curve; as a rule, active = well fitted inhibition curve with a large enough effect in the repeat runs; inconclusive = weak or mixed curves; inactive = no such curve, though single readings can be large or run the other way.

{"COMPOUND": "CCSC(=N)N", "outcome": "inactive"}
{"COMPOUND": "C[N+](C)(C)CCOP(=O)(O)OP(=O)([O-])OC[C@H]1O[C@@H](n2ccc(N)nc2=O)[C@H](O)C1O (stereo partly specified)", "outcome": "inactive"}
{"COMPOUND": "Nc1nc(OCc2ccccc2)c2[nH]cnc2n1", "outcome": "inactive"}
{"COMPOUND": "S=c1[nH]c(-c2ccccc2)cn1-c1ccccc1", "outcome": "inactive"}
{"COMPOUND": "O=C(O)c1cc(=O)cc(C(=O)O)[nH]1", "outcome": "inactive"}
{"COMPOUND": "CC(=O)N[C@H](C(=O)O)C(C)(C)SN=O", "outcome": "inactive"}

----------
Assay: qHTS assay to identify small molecule agonists of H2AX (AID 1224845)
Conditions: CHO-K1 phospho-H2AX Ser139 HTRF, 3 h; series mostly up to 154 µM
Records with an inconclusive call do not appear. Activity calls are given as the source filed them. Calls come from the whole dose curve; as a rule, active = well fitted activation curve with a large enough effect in the signal ratio in the repeat runs (not every such curve was filed as active); inconclusive = weak or mixed curves; inactive = flat fitted curve, though single readings scatter; the % refers to the signal ratio.
Labels: y = active, n = inactive

{"COMPOUND": "Nc1c(Br)cc([N+](=O)[O-])cc1Br", "CATEGORY": "n"}
{"COMPOUND": "SC1CCCCC1", "CATEGORY": "n"}
{"COMPOUND": "C=C1C(CCl)(CCl)C2(Cl)C(Cl)C(Cl)C1(Cl)C2(Cl)Cl (centres undefined)", "CATEGORY": "y"}
{"COMPOUND": "NCc1ccco1", "CATEGORY": "n"}

----------
Assay: qHTS assay to identify small molecule antagonists of the thyroid receptor (TR) signaling pathway - cell viability counter screen (AID 743064); further: nearly all actives have a fitted effect of over 50% in size; further: potency means the concentration at half of the fitted maximal effect
Settings: GH3.TRE-Luc viability, CellTiter-Fluor, 24 h; series mostly up to 70.3 µM
Results filed as inconclusive are left out. Active and inactive are the calls of the source. The call rests on the fitted dose curve; in most records, active means well fitted cell-killing curve with a large enough effect in the repeat runs; inconclusive means weak or mixed curves, or effect the other way; inactive means no such curve, though single readings can be large or run the other way. Non-standard residues stand in square brackets, D forms with d. Residues, ends and D or L forms follow the SMILES beside them. Orn = NCCC[C@H](N)C(=O)O
QUANTITY_NAME: Potency

{"MOLECULE": "CC(=O)NC[C@H]1CN(c2ccc(N3CCOCC3)c(F)c2)C(=O)O1", "OBSERVED_RESULT": "inactive"}
{"MOLECULE": "CCCCCCCCCCCCCC(=O)OCC(COP(=O)([O-])OCC[N+](C)(C)C)OC(=O)CCCCCCCCCCCCC (centres undefined)", "OBSERVED_RESULT": "inactive"}
{"MOLECULE": "CC(=NCc1ccccc1)c1ccccc1O", "OBSERVED_RESULT": "inactive"}
{"MOLECULE": "CC(C)C[C@@H]1NC(=O)[C@H](CCCN)NC(=O)[C@H](C(C)C)NC(=O)[C@@H]2CCCN2C(=O)[C@@H](Cc2ccccc2)NC(=O)[C@H](CC(C)C)NC(=O)[C@H](CCCN)NC(=O)[C@H](C(C)C)NC(=O)[C@@H]2CCCN2C(=O)[C@@H](Cc2ccccc2)NC1=O (cyclo(V[Orn]L[dF]PV[Orn]L[dF]P))", "OBSERVED_RESULT": "2110 nM (active)"}
{"MOLECULE": "SC1CCCCC1", "OBSERVED_RESULT": "inactive"}
{"MOLECULE": "CC(C)=CCC/C(C)=C/CC/C(C)=C/CC/C=C(\\C)CC/C=C(\\C)CCC=C(C)C", "OBSERVED_RESULT": "inactive"}
{"MOLECULE": "Cc1cccc(C)c1NC(=O)C1CCCCN1C (centres undefined)", "OBSERVED_RESULT": "inactive"}
{"MOLECULE": "CN=C(N)NCCC[C@H](N)C(=O)O", "OBSERVED_RESULT": "inactive"}
{"MOLECULE": "CCSCC", "OBSERVED_RESULT": "inactive"}

----------
Assay: qHTS assay for identifying genotoxic compounds that show differential cytotoxicity against isogenic chicken DT40 cell lines with known DNA damage response pathways - Rev3 mutant cell line (AID 743014); further: nearly all actives have a fitted effect of over 55% in size
Conditions: chicken DT40 Rev3-/- viability, CellTiter-Glo, 40 h; series mostly up to 68.4 µM
Records with an inconclusive call do not appear. Calls of active or inactive are those of the source. The call rests on the fitted dose curve; in most records, active means well fitted cell-killing curve with a large enough effect in the repeat runs; inconclusive means weak or mixed curves, or effect the other way; inactive means no such curve, though single readings can be large or run the other way.
Labels: yes (1) (active), no (0) (inactive)

{"COMPOUND": "CC1(C)S[C@@H]2[C@H](NC(=O)[C@H](N)c3ccc(O)cc3)C(=O)N2[C@H]1C(=O)O", "CATEGORY": "no (0)"}
{"COMPOUND": "C=CC(N)CCC(=O)O (stereo not drawn)", "CATEGORY": "no (0)"}
{"COMPOUND": "C=CC1=C(C(=O)O)N2C(=O)[C@@H](NC(=O)/C(=N\\O)c3csc(N)n3)[C@H]2SC1 (stereo in doubt)", "CATEGORY": "no (0)"}
{"COMPOUND": "C[C@H](NCCc1ccc(O)cc1)[C@H](O)c1ccc(O)cc1", "CATEGORY": "no (0)"}
{"COMPOUND": "Cc1cc(Br)ccc1NC(=O)CCl", "CATEGORY": "yes (1)"}
{"COMPOUND": "O=P(O)(O)OP(=O)(O)OP(=O)(O)O", "CATEGORY": "no (0)"}
{"COMPOUND": "O=C(O)Cc1nn(Cc2ccc(Br)cc2F)c(=O)c2ccccc12", "CATEGORY": "no (0)"}
{"COMPOUND": "O=C(O)CCCC/C=C(\\c1ccccc1)c1cccnc1", "CATEGORY": "no (0)"}
{"COMPOUND": "C=N[C@@H](C(=O)N[C@@H]1C(=O)N2[C@@H]1SC(C)(C)[C@@H]2C(=O)O)c1ccccc1", "CATEGORY": "no (0)"}
{"COMPOUND": "O=C(O)c1cc(O)c2c(c1)[C@H]([C@H]1c3cc(C(=O)O)cc(O)c3C(=O)c3c(O[C@@H]4O[C@H](CO)[C@@H](O)[C@H](O)[C@H]4O)cccc31)c1cccc(O[C@@H]3O[C@H](CO)[C@@H](O)[C@H](O)[C@H]3O)c1C2=O", "CATEGORY": "no (0)"}
{"COMPOUND": "CC(C)COC(=O)OCN1C(=O)CN(CCN2CC(=O)N(COC(=O)OCC(C)C)C(=O)C2)CC1=O", "CATEGORY": "no (0)"}
{"COMPOUND": "Cc1cc(F)ccc1-c1cc(N2CC[C@@H](O)[C@H]2CO)ncc1N(C)C(=O)C(C)(C)c1cc(C(F)(F)F)cc(C(F)(F)F)c1", "CATEGORY": "yes (1)"}
{"COMPOUND": "CC(C)CCC[C@@H](C)[C@H]1CC[C@H]2[C@@H]3CC=C4C[C@@H](O)CC[C@]4(C)[C@H]3CC[C@]12C", "CATEGORY": "no (0)"}
{"COMPOUND": "C=C1[C@H](CO)[C@@H](O)C[C@@H]1n1cnc2c(=O)[nH]c(N)nc21", "CATEGORY": "yes (1)"}
{"COMPOUND": "Cc1ccc(C(C)(C)c2ccc(C)cc2)cc1", "CATEGORY": "no (0)"}
{"COMPOUND": "CN1CCN(c2ccccc2/C=C2\\SCCN(c3ccc(Cl)c(Cl)c3)C2=O)CC1", "CATEGORY": "yes (1)"}
{"COMPOUND": "CCOc1ccc(S(=O)(=O)O)c2cccnc12", "CATEGORY": "no (0)"}
{"COMPOUND": "COc1ccc(/C=C/C(=O)O)cc1", "CATEGORY": "no (0)"}
{"COMPOUND": "CC(=O)[C@]1(O)Cc2c(O)c3c(c(O)c2[C@@H](O[C@H]2C[C@H](N)[C@H](O)[C@H](C)O2)C1)C(=O)c1ccccc1C3=O", "CATEGORY": "yes (1)"}
{"COMPOUND": "CCN(CC)C(=O)c1cccnc1", "CATEGORY": "no (0)"}
{"COMPOUND": "CNCC(=O)N[C@@H](CCCN=C(N)N)C(=O)N[C@H](C(=O)N[C@@H](Cc1ccc(O)cc1)C(=O)N[C@H](C(=O)N[C@@H](Cc1cnc[nH]1)C(=O)N1CCC[C@H]1C(=O)N[C@@H](C)C(=O)O)C(C)C)C(C)C", "CATEGORY": "no (0)"}
{"COMPOUND": "O=C1c2c(O)cccc2[C@H]([C@@H]2O[C@H](CO)[C@@H](O)[C@H](O)[C@H]2O)c2cc(CO)cc(O)c21", "CATEGORY": "no (0)"}
{"COMPOUND": "CN(Cc1ccccc1)Cc1ccccc1", "CATEGORY": "no (0)"}
{"COMPOUND": "CC(C)OC(=O)Nc1ccc2nc(-c3cscn3)[nH]c2c1", "CATEGORY": "yes (1)"}
{"COMPOUND": "O=C(O)c1cc2cc(Cc3cccnc3)ccc2o1", "CATEGORY": "no (0)"}
{"COMPOUND": "O=C(O)[C@@H]1C[C@H](CP(=O)(O)O)CCN1", "CATEGORY": "no (0)"}
{"COMPOUND": "COc1cc2c(cc1O)CCN[C@]21CS[C@@H]2c3c(OC(C)=O)c(C)c4c(c3[C@H](COC1=O)N1[C@@H]2[C@H]2c3c(cc(C)c(OC)c3O)C[C@@H]([C@@H]1O)N2C)OCO4", "CATEGORY": "yes (1)"}
{"COMPOUND": "CSCC[C@H](NC(=O)[C@H](Cc1ccc(OS(=O)(=O)O)cc1)NC(=O)[C@@H](N)CC(=O)O)C(=O)NCC(=O)N[C@@H](Cc1c[nH]c2ccccc12)C(=O)N[C@@H](CCSC)C(=O)N[C@@H](CC(=O)O)C(=O)N[C@@H](Cc1ccccc1)C(N)=O", "CATEGORY": "no (0)"}
{"COMPOUND": "CN[C@@H]1[C@@H](O[C@H]2O[C@H](CO)[C@@H](N)[C@H](O)[C@H]2O)O[C@H]2C[C@@H](N)[C@@H](O[C@H]3[C@H](O)[C@@H](O)[C@H](N)C[C@@H]3N)O[C@@H]2[C@@H]1O", "CATEGORY": "no (0)"}
{"COMPOUND": "COC1[C@@H](O[C@@H]2O[C@H](C)[C@@H](O[C@H]3C[C@@](C)(O)[C@H](OC(=O)CC(C)C)[C@H](C)O3)[C@H](N(C)C)[C@H]2O)[C@@H](CC=O)C[C@@H](C)[C@@H](O)/C=C/C=C/C[C@@H](C)OC(=O)C[C@H]1OC(C)=O (stereo partly drawn)", "CATEGORY": "no (0)"}
{"COMPOUND": "CC(=O)O[C@H]1C[C@@H]2CC[C@@H]3[C@H](CC[C@@]4(C)[C@H]3C[C@H]([N+]3(C)CCCCC3)[C@@H]4OC(C)=O)[C@@]2(C)C[C@@H]1[N+]1(C)CCCCC1", "CATEGORY": "no (0)"}
{"COMPOUND": "C/C=C/C1=C(C(=O)O)N2C(=O)[C@@H](NC(=O)[C@H](N)c3ccc(O)cc3)[C@H]2SC1", "CATEGORY": "no (0)"}
{"COMPOUND": "C[N+]1(CCCCC[N+]2(C)CCCC2)CCCC1", "CATEGORY": "no (0)"}
